assay overview: Acute toxicity by intravenous injection into mice
assay context: mouse, in vivo, free base
metric: LD50

Give the reported value of LD50 for this record: NC[C@H]1O[C@H](O[C@H]2[C@H](O[C@@H]3O[C@H](CO)[C@H](O)[C@H]3O)[C@@H](O)[C@H](N)C[C@@H]2N)[C@H](N)[C@@H](O)[C@@H]1O [xylostasin] ~1000 mg/kg
